Here, each record is paired with measured growth inhibition data.
Experiment: OD615 S. cerevisiae growth inhibition, permissive medium, pilot counter-assay, permissive growth control for S. cerevisiae lifespan shortening project (AID 705)
Details: OD615, 24 h, at 10 µM, hits give high values
Report as a plain number; the unit % is understood.

Field: example entries. Status: answers known.
O=C(Oc1ccccc1)c1cccc(N2C(=O)CCC2=O)c1 :: -1.76
Nc1c(C(=O)NCc2ccccc2)nnn1Cc1ccc(F)cc1 :: -1.67
CC(C)(C)c1ccc(S(=O)(=O)N2CCCCC2C(=O)NCc2ccccn2)cc1 (stereo unspecified) :: -24.9
c1ccc(COc2nsnc2N2CCOCC2)cc1 :: 6.21
CCN(CC)CCNC(=O)c1cn(CC)c2ccc(S(=O)(=O)N(C)C)cc2c1=O :: 0.365

Would you kindly share the measured growth inhibition for O=C(NCCn1ccc2ccccc21)c1ccc(S(=O)(=O)N2CCCCC2)cc1 ?
-12.5

What do you get for C/C(NCCN1CCOCC1)=C(\C#N)C(N)=O ?
-3.8

What do you get for O=C(CCNS(=O)(=O)c1cccc2nsnc12)NC1CCCc2ccccc21 (stereo unspecified) ?
-9.18

What do you get for COc1c(Cl)ccc(Cl)c1C(=O)OCC(=O)O ?
-7.06

What do you get for CCOC(=O)N1CCN(C(=O)c2oc(=O)c3ccccc3c2-c2ccc(C)cc2)CC1 ?
-8.36

What do you get for CC(C)C(=O)Nc1c(C(=O)c2ccc(F)cc2)oc2ccccc12 ?
-8.13

What do you get for CCc1ccc(S(=O)(=O)NCc2csc(-c3cccnc3)n2)s1 ?
-13.1

What do you get for CCCNC(=O)Nc1cc(OCC)c(N2CCOCC2)cc1OCC ?
-0.41

What do you get for COc1ccc(-c2oc(/N=C/N3CCOCC3)c(C#N)c2-c2ccc(OC)cc2)cc1 ?
-10.1

What do you get for O=C(NC1CSC/C1=N\O)c1ccccc1 (stereo unspecified) ?
-9.51

What do you get for Cn1c(=O)c2cc(S(=O)(=O)NC(C(=O)N3CCCCCC3)c3ccccc3)ccc2n(C)c1=O (stereo unspecified) ?
-16.6

What do you get for COc1cccc(NC(=O)c2cccnc2)c1 ?
-5.19

What do you get for O=C(CCCC1=NS(=O)(=O)c2ccccc2N1)N1CCN(c2ccc(Cl)cc2)CC1 ?
-17.7

What do you get for CC1=C(C#N)C2C(/C1=N/O)C2(C)C (stereo unspecified) ?
-4.15

What do you get for Cc1ccc2[nH]c(=O)c(-c3noc(C(C)C)n3)cc2c1 ?
-11.9

What do you get for Cc1cccc(C2Nc3ccccc3C(=O)N2CCc2ccccc2)n1 (stereo unspecified) ?
-10.1

What do you get for O=C1CCCCC(=O)N(c2ccccc2)c2ccccc21 ?
-9.64

What do you get for Cc1ccccc1-n1c(SC/C(O)=C(\C#N)c2nc3ccccc3[nH]2)nnc1-c1ccncc1 ?
2.37

What do you get for CCOc1cccc2sc(NC(=O)c3ccc(Br)s3)nc12 ?
-25.6

What do you get for Cc1cc(-n2c(SCCC#N)nnc2-c2cccnc2)ccc1Cl ?
-12.4
